Target: Prostaglandin G/H synthase 2 (Homo sapiens, UniProt P35354)
Sequence (P35354 whole entry): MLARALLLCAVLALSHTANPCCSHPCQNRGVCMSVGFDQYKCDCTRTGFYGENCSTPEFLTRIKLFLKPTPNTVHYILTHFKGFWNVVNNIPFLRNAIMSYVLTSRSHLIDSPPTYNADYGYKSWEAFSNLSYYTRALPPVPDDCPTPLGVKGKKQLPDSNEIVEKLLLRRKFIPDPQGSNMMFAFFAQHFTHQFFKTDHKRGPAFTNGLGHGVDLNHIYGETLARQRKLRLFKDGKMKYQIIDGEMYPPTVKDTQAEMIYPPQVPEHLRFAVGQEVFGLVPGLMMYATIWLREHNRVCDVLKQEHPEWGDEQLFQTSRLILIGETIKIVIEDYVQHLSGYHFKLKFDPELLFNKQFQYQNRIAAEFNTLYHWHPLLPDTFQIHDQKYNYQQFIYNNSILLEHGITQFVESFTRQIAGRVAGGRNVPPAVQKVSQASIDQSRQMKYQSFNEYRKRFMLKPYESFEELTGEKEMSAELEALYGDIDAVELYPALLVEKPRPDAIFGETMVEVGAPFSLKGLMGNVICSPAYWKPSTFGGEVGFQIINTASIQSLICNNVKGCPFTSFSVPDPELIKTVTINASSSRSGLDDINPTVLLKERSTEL
Experiment: Concentration of drug that causes a 50% decrease in the maximal inhibition of Prostaglandin G/H synthase 2 activity as measured by PGE-2 production (''++'' indicates 80-90% inhibition)
Endpoint name: IC50
Record the result as a number with its unit.

Task: Given the compound "Cc1cnc(NC(=O)C2=C(O)c3sccc3S(=O)(=O)N2C)s1" , what is its reported IC50?
Output: 510 nM

====

Target: Prostaglandin G/H synthase 1 (Homo sapiens, UniProt P23219)
Sequence (P23219 whole entry): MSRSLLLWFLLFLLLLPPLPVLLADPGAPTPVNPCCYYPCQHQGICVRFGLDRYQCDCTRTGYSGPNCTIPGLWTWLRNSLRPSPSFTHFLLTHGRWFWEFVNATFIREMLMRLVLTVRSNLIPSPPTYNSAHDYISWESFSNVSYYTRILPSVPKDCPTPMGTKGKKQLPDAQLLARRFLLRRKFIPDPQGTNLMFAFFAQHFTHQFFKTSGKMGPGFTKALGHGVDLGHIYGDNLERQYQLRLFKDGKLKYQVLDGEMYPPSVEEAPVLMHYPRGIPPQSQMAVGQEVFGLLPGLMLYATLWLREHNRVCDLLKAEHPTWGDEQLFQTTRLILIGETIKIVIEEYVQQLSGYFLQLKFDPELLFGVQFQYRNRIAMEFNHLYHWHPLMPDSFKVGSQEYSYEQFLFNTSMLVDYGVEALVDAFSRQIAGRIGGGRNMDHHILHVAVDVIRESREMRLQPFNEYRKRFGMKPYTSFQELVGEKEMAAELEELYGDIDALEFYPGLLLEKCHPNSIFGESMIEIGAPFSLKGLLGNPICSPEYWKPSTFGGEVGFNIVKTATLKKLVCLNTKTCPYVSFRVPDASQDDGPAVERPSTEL
Test: Inhibition of human Prostaglandin G/H synthase 1 at 0.1 ug/mL expressed as mean percent inhibition of control PGE-2 production
Endpoint name: inhibition (%)
Answers are plain numbers, in %.

Here's what some known entries look like.
CN1C(C(=O)Nc2ccccc2)=C(O)c2ccccc2S1(=O)=O	-8
CN1C(=O)/C(=C(/O)Nc2ccccc2)c2cc(Cl)ccc2C1=O	13
CN1C(O)=C(C(=O)Nc2ccccc2)c2ccccc2S1(=O)=O	65
CN1C(O)=C(C(=O)Nc2nccs2)c2ccc(Cl)cc2S1(=O)=O	-8
CN1C(C(=O)Nc2nccs2)=C(O)c2c(ccc3ccccc23)S1(=O)=O	-10

For each listed entry, give its inhibition.
1. Cc1ccc2c(c1)C(O)=C(C(=O)Nc1ccc(Cl)cc1)N(C)S2(=O)=O
2. Cc1cnc(NC(=O)C2=C(O)c3cc(Cl)ccc3SC2)s1
3. CCN1C(O)=C(C(=O)Nc2ccc(Cl)cc2Cl)c2cc(Cl)ccc2S1(=O)=O
4. Cc1ccc2c(c1)C(O)=C(C(=O)Nc1ccccc1)N(C)S2(=O)=O
5. CCN1C(C(=O)Nc2ncc(C)s2)=C(O)c2ccccc2S1(=O)=O
6. CN1C(=O)/C(=C(/O)Nc2ccc(Cl)cc2)c2ccccc2C1=O

Output:
0
11
36
-1
-2
57

For each listed entry, give its inhibition.
1. Cc1ccc2c(c1)C(O)=C(C(=O)Nc1ccccn1)N(C)S2(=O)=O
2. CN1C(C(=O)Nc2ccc(Cl)cc2)=C(O)c2cc(Cl)ccc2S1(=O)=O
3. Cc1ccc2c(c1)/C(=C(\O)Nc1ccc(Cl)cc1Cl)C(=O)N(C)C2=O
4. O=C(Nc1ccccn1)C1=C(O)c2ccccc2SC1
5. COc1ccc2c(c1)C(O)=C(C(=O)Nc1ccc(Cl)cc1)N(C)S2(=O)=O

Output:
1. -9
2. 6
3. 79
4. -1
5. 9

For each listed entry, give its inhibition.
1. CN1C(C(=O)Nc2ccccn2)=C(O)c2ccc(F)cc2S1(=O)=O
2. CN1C(O)=C(C(=O)Nc2ccccc2)c2c(ccc3ccccc23)S1(=O)=O
3. O=C(Nc1cccc(Cl)c1)C1=C(O)c2cc(Cl)ccc2[S+]([O-])C1 (configuration not stated)
4. CN1C(O)=C(C(=O)Nc2nccs2)c2cc(Cl)ccc2S1(=O)=O
5. CN1C(c2nc3ccccc3[nH]2)=C(O)c2ccccc2S1(=O)=O

Output:
1: 3; 2: 18; 3: 0; 4: 18; 5: -4

Task: Lab request: please report inhibition under test system Prostaglandin G/H synthase 1 (Homo sapiens, UniProt P23219) for "CN1C(C(=O)Nc2ccccn2)=C(O)c2cc(F)ccc2S1(=O)=O"
Output: 0
